Reported values: Kd for exTrkB (Homo sapiens, UniProt Q16620), one per item.
Your answer should be a plain number; it is taken to be in µM.

Some solved entries appear below for comparison.
O=c1cc(-c2ccccc2)oc2c(O)c(O)ccc12 [7,8-DHF, 7,8-dihydroxyflavone]
1.3
O=C1C(O)=C(c2c[nH]c3ccccc23)C(=O)C(O)=C1c1c[nH]c2ccccc12
2.6

The compound listed as C=CC(C)(C)c1[nH]c2ccccc2c1C1=C(O)C(=O)C(c2c[nH]c3c(CC=C(C)C)cccc23)=C(O)C1=O has a reported Kd of 5.6

The compound listed as OCCN(CCO)c1ccc(C(c2ccc(Cl)cc2)c2ccc(N(CCO)CCO)cc2)cc1 has a reported Kd of 83
